Provenance of the data: patent US10584124B2

- assay.remarks: Solubility of the free base of the compound of Formula I in solvents and mixed solvent systems
- Format: physicochemical
- measurement.conditions: organic solvent or mixture, thermodynamic from solid; 10% DCM in EtOH, room temperature; read-out: Solubility
measurement.name: solubility (µg/mL)

- COc1ccc(CN2CCN(c3ccc(-c4cc(-c5cnn(C)c5)cn5ncc(C#N)c45)cn3)CC2)cn1 [freebase of the compound of Formula I]: 60

---

- assay.remarks: Solubility of the free base of the compound of Formula I in solvents and mixed solvent systems
- Assay type: physicochemical
- measurement.conditions: MeOH, 25 °C, organic solvent or mixture, thermodynamic from solid; read-out: Solubility at 25° C.
measurement.name: solubility (µg/mL)

• COc1ccc(CN2CCN(c3ccc(-c4cc(-c5cnn(C)c5)cn5ncc(C#N)c45)cn3)CC2)cn1 [freebase of the compound of Formula I] = 70
